Item-by-item account of patients with anti-drug antibodies
# methodNotes: patients with anti-drug antibodies; higher = more immunogenic
Report as a plain number; the unit % is understood.

- protein: "unnamed (protein) chain 1: QVELVESGGGLVQPGGSLRLSCAASGFTFTSYWMSWVRQAPGKGLELVSSITSYGSFTYYADSVKGRFTISRDNSKNTLYLQMNSLRAEDTAVYYCARNMYTHFDSWGQGTLVTVSS chain 2: DIVLTQPPSVSGAPGQRVTISCSGSSSNIGSNSVSWYQQLPGTAPKLLIYDNSKRPSGVPDRFSGSKSGTSASLAITGLQSEDEADYYCQSRDTYGYYWVFGGGTKLTVL"
  patients with anti-drug antibodies, %: 2.3
- protein: "unnamed (protein) chain 1: EVQLVQSGAEVKKPGATVKISCKVSGYTFTDYYIHWVQQAPGKGLEWMGRVNPDHGDSYYNQKFKDKATITADKSTDTAYMELSSLRSEDTAVYFCARNYLFDHWGQGTLVTVSS chain 2: DIQMTQSPSSVSASVGDRVTITCKASQDVGTAVAWYQQKPGKAPKLLIYWASIRHTGVPSRFSGSGSGTDFTLTISSLQPEDFATYYCHQFATYTFGGGTKVEIK"
  patients with anti-drug antibodies, %: 58.6

Next up:
Value lookup for patients with anti-drug antibodies; key = unnamed (protein) chain 1: QVQLQESGPGLVKPSETLSLTCTVSGGSVSSGDYYWTWIRQSPGKGLEWIGHIYYSGNTNYNPSLKSRLTISIDTSKTQFSLKLSSVTAADTAIYYCVRDRVTGAFDIWGQGTMVTVSS chain 2: DIQMTQSPSSLSASVGDRVTITCQASQDISNYLNWYQQKPGKAPKLLIYDASNLETGVPSRFSGSGSGTDFTFTISSLQPEDIATYFCQHFDHLPLAFGGGTKVEIK
2.8
